Assay system: delta-5-desaturase (Rattus norvegicus)
Construct: the microsomal fraction of a rat river (10 μl), which had been diluted to 3 mg/ml; from tissue; host or cells: rat liver microsomal fraction
Sequence (Q920R3 whole entry): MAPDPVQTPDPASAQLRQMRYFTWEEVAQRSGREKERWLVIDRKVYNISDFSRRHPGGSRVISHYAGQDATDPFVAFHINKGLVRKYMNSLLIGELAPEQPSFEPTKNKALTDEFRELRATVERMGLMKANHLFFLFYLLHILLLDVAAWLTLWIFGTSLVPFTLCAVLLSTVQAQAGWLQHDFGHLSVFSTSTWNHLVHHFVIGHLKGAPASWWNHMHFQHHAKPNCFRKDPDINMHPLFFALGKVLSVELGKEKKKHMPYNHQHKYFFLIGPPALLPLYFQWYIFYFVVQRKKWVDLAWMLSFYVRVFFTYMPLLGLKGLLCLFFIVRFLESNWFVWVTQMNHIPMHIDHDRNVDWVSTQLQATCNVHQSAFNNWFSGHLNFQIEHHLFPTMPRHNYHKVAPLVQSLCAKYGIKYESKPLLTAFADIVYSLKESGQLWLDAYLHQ
Test protocol: Inhibitory activity on delta-5-desaturase (rat liver microsomal fraction, 14C-eicosatrienoic acid, TLC)
Format: biochemical
Test context: test compound at 10 μM, room temperature, 120 minutes
Test readout: inhibition at 10 µM (%)

INSERT INTO measurements (line_notation, test_readout, measurement_unit, reported_measurement) VALUES
  ('O=C1Cc2c(nc(SC3CC3)n(-c3ccc(OCC(F)(F)F)cc3)c2=O)N1', 'inhibition at 10 µM', '%', 99),
  ('N#CCCCSc1nc2cc[nH]c2c(=O)n1-c1ccc(OCC(F)(F)F)cc1', 'inhibition at 10 µM', '%', 99),
  ('O=C1Cc2c(nc(OCC(F)F)n(-c3ccc(OCC(F)(F)F)cc3)c2=O)N1', 'inhibition at 10 µM', '%', 99),
  ('CC1(COc2ccc(-n3c(SCCCC(=O)NCCC#N)nc4[nH]ccc4c3=O)cc2)CC1', 'inhibition at 10 µM', '%', 98);
